Experiment: in vivo
Settings: rat, plasma, iv, 10 umol/kg
quantityKind: clearance (mL/min/kg)
Write the number in mL/min/kg without appending the unit.

The reported clearance of the molecule Cc1onc(NS(=O)(=O)c2ccccc2-c2ccc(-c3ncco3)cc2N(C)C(=O)CC(C)(C)C)c1C was 5.4

----------
Give Papp for every item shown.
Test: in vitro
Conditions: human, Caco-2

The reported Papp of the compound Cc1noc(NS(=O)(=O)c2ccccc2-c2ccc(-c3ncco3)cc2COCC(C)C)c1C was < 30 nm/s

Notebook: Cc1noc(NS(=O)(=O)c2ccccc2-c2ccc(-c3ncco3)cc2/C=C\c2ccccc2)c1C , Papp read as 89 nm/s

Form field Papp, entry Cc1noc(NS(=O)(=O)c2ccccc2-c2ccc(-c3ncco3)cc2Cc2ncco2)c1C : 148 nm/s

----------
Assay: in vivo
Settings: rat
quantityKind: half-life (h)
Express the result in h but write the number alone.

Reported half-life for Cc1onc(NS(=O)(=O)c2ccccc2-c2ccc(-c3ncco3)cc2N(C)C(=O)CC(C)(C)C)c1C was 3.4

# half-life of Cc1onc(NS(=O)(=O)c2ccccc2-c2ccc(-c3ncco3)cc2CN2CCC(C)(C)C2=O)c1C = 4.7

----------
Experiment: Half life in monkey at oral dose of 25 umol/kg
Assay type: ADME, organism-based
Details: simiiformes, in vivo
quantityKind: half-life (h)
API: value field is a number in h; no unit string.

# half-life (compound: Cc1onc(NS(=O)(=O)c2ccccc2-c2ccc(-c3ncco3)cc2N(C)C(=O)CC(C)(C)C)c1C ) is 17

----------
Experiment: Tested for volume distribution at intravenous dose of 25 umol/kg in monkey
Type: ADME, organism-based
Conditions: simiiformes, in vivo, read-out: Vss
quantityKind: Vd (L/kg)
Only the number, expressed in L/kg, is required.

Recorded result, Cc1onc(NS(=O)(=O)c2ccccc2-c2ccc(-c3ncco3)cc2N(C)C(=O)CC(C)(C)C)c1C , Vd: 0.25

----------
Assay: Cmax value at oral dose of 25 umol/kg in monkey
Assay type: ADME, organism-based
Design: dose 25 umol/kg, route oral
Details: simiiformes, in vivo
quantityKind: Cmax (µM)
# unit: µM | format: bare number

Reported Cmax for Cc1onc(NS(=O)(=O)c2ccccc2-c2ccc(-c3ncco3)cc2N(C)C(=O)CC(C)(C)C)c1C was 16.1

----------
Test: in vivo
Settings: rat, iv, 10 umol/kg
quantityKind: Vd (L/kg)
Enter your answer as a number in L/kg; do not include the unit.

Form field Vd, entry Cc1onc(NS(=O)(=O)c2ccccc2-c2ccc(-c3ncco3)cc2CN2CCC(C)(C)C2=O)c1C : 2.3

----------
Answer each item with its documented Cmax.
Assay: in vivo
Details: rat, po, 10 umol/kg
Give just the number in µM; leave the unit off.

Per the record, Cc1onc(NS(=O)(=O)c2ccccc2-c2ccc(-c3ncco3)cc2N(C)C(=O)CC(C)(C)C)c1C has Cmax of 28

get_value(item= Cc1onc(NS(=O)(=O)c2ccccc2-c2ccc(-c3ncco3)cc2CN2CCC(C)(C)C2=O)c1C , readout=Cmax) returns 7.7

----------
Assay: Tested for plasma clearance at intravenous dose of 25 umol/kg in monkey
Format: ADME, organism-based
quantityKind: clearance (mL/min/kg)
Give the number; mL/min/kg is assumed, so skip it.

In plain terms, Cc1onc(NS(=O)(=O)c2ccccc2-c2ccc(-c3ncco3)cc2N(C)C(=O)CC(C)(C)C)c1C has a documented clearance of 2.7

# credit: ChEMBL document CHEMBL1145011
